Target: ATP-binding cassette sub-family B member 6 (Homo sapiens) (UniProt Q9NP58)
Sequence (Q9NP58 whole entry, looked up): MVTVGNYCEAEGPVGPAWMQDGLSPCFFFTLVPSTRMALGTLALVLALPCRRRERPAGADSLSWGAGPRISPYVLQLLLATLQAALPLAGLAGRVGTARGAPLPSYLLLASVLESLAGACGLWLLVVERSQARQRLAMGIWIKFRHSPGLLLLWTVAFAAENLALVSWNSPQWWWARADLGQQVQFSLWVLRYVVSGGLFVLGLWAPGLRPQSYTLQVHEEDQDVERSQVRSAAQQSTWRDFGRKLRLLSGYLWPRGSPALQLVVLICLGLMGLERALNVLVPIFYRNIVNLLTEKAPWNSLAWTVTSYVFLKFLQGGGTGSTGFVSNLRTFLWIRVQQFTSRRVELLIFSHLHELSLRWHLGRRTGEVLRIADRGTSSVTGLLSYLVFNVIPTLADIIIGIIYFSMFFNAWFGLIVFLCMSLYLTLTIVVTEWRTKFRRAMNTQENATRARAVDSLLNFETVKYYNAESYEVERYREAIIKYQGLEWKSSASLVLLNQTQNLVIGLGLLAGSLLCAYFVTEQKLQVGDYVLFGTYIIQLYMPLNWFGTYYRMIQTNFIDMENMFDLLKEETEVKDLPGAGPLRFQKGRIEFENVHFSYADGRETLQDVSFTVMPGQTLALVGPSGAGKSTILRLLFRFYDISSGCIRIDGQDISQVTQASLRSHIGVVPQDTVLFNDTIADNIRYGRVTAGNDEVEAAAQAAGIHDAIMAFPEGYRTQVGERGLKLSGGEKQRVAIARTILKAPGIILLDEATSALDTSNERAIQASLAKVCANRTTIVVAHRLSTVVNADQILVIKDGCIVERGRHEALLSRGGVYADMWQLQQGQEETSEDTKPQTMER
Experiment: blockers of ABCB6-driven porphyrin uptake – K562-ABCB6 cells, flow cytometry, validation set, pilot screen (AID 588550);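 also: 0% = DMSO wells and 100% = benzethonium chloride 70 µM positive control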
Settings: K562-ABCB6 porphyrin accumulation, 1 h, at 10 µM, stronger effect = higher value
QUANTITY KIND: inhibition (%)
Give bare numbers, in %.

Use the examples below as a reference point.
Cc1ccc2[nH]c(=O)c(Cc3ccccc3)c(O)c2c1 : -1
CC1(C)O[C@@H]2C[C@H]3[C@@H]4C[C@H](F)C5=CC(=O)CC[C@]5(C)[C@H]4[C@@H](O)C[C@]3(C)[C@]2(C(=O)CO)O1 : 12
CCOCCCNCc1cn(-c2ccc(F)cc2F)nc1-c1ccccc1C : -10
COc1cc(C2NCCc3c2[nH]c2ccccc32)ccc1OC(C)C (stereo unspecified) : 9
CCC(C(=O)OCCN(CC)CC)c1ccccc1 (stereo unspecified) : 6

Give one value of inhibition per listed compound.
1. NC(=O)c1ccccc1O
2. OC(CCCN1CCC(O)(c2ccc(Cl)cc2)CC1)c1ccc(F)cc1 (stereo unspecified)
3. Cc1ccc2c(c1)C(CCN)C(=O)N2Cc1ccccc1 (stereo unspecified)
4. COc1ccc(CNC(=O)N[C@H](C(=O)O)C(C)C)cc1OC
5. CSCC[C@H](NC(=O)Nc1ccc(C)cc1C)C(=O)O

## Output
[3, -1, 1, 3, 7]

COc1ccccc1NC(=O)C12CCC(C)(C(=O)C1)C2(C)C (stereo unspecified) on ATP-binding cassette sub-family B member 6 (Homo sapiens) (UniProt Q9NP58) gives inhibition = 1

###

I'd be grateful if you could share measured vesicle binding response for these entries.
Assay: reduced mouse 2C T cell binding to pMHC/ICAM-1 vesicles – MLPCN validation set, flow cytometry, LFA-1/ICAM-1 modulator project, pilot screen (AID 2523);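 also: mean PE anti-B7-1 fluorescence of CD8+ cells relative to row control; 100% = QL9-loaded vesicles with DMSO vehicle in the same plate row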
Details: 2C mouse CD8+ T cells, at 7 µM, stronger effect = lower value
Numbers only, in %.

Give one value of vesicle binding response per listed compound.
1. C1COC(NC(C2CC2)C2CC2)=N1
2. O=C(OCC(O)C(O)COC(=O)c1ccccc1)c1ccccc1 (stereo unspecified)
3. Fc1ccc(C(c2ccc(F)cc2)N2CCN(C/C=C/c3ccccc3)CC2)cc1
4. Cc1ccc(C(=O)Nc2ccccc2C(=O)NC(C(=O)O)C(C)C)cc1 (stereo unspecified)
5. CN1CC2CCCC3(C1)C(=O)NC1(CCCCC1)N=C23 (stereo unspecified)
6. COc1ccc(-c2[nH]ncc2CN(CCO)Cc2cccs2)c(F)c1
7. CC1=NS(=O)(=O)c2cc(Cl)ccc2N1
8. C[C@]12CCC3C(CC=C4C[C@@H](O)CC[C@@]43C)C1CCC2[C@]1(C)CCC(=O)O1 (stereo partly specified)

## Output
1: 227; 2: 102; 3: 215; 4: 175; 5: 281; 6: 142; 7: 964; 8: 164

Give one value of vesicle binding response per listed compound.
1. CCn1c(N2CCN(CC(=O)c3c(C)n(C)c4ccc(OC)cc34)CC2)nc2c1c(=O)[nH]c(=O)n2C
2. CCOC(=O)n1c(=O)oc2ccccc21

## Output
[206, 196]

vesicle binding response reported for this compound COc1cccc(OCC(O)CO)c1 (stereo unspecified) : 160

###

Target: Cell division control protein 42 homolog (Homo sapiens)
Experiment: inhibition of fluorescent GTP binding to wildtype Cdc42 – biochemical, multiplex bead flow cytometry, Bodipy-FL-GTP, dose response (AID 1334)
Conditions: bead-based flow cytometry, Bodipy-FL-GTP binding to GST-Cdc42; at 100 µM (top of the series) unless noted
Entries with a potency or affinity are not part of this list.
Threshold 50%: fluorescence, percent of control (lower = inhibition) strictly smaller gives rule met, otherwise rule not met.

Here's what some known entries look like.
O=C(N/N=C/c1ccc2nccnc2c1)c1cccc([N+](=O)[O-])c1 : rule met
Cc1ccc(OCc2ccccc2C)c(C(=O)O)c1 : rule not met
Cc1cccc(CNc2ncccc2C(=O)O)c1 : rule not met
O=C(CCN1CCCC1Cc1ccccc1)c1ccc2c(c1)OCCO2 (stereo unspecified) : rule met
CC(=O)N1C(=O)/C(=C2\SC(=S)N(NC(=O)c3ccc(O)cc3)C2=O)c2ccccc21 : rule met
O=C(O)c1ccc2c3c(cccc13)C(=O)N(OS(=O)(=O)c1ccccc1)C2=O : rule met

## Input Does the reported fluorescence, percent of control (lower = inhibition) of the following compound sit strictly below 50%? O=C(CSc1ncnc2scc(-c3ccccc3)c12)N1CCN(Cc2ccc3c(c2)OCO3)CC1
## Output rule met

## Input Does the reported fluorescence, percent of control (lower = inhibition) of the following compound sit strictly below 50%? Cc1nc2cccc(C)n2c(=O)c1Cl
## Output rule met

## Input Does the reported fluorescence, percent of control (lower = inhibition) of the following compound sit strictly below 50%? COC(=O)n1c(=S)oc2cc(Cl)ccc21
## Output rule not met

## Input Does the reported fluorescence, percent of control (lower = inhibition) of the following compound sit strictly below 50%? COc1ccc(C(=O)NC(=S)N2CC(C)OC(C)C2)cc1 (stereo unspecified)
## Output rule not met
